- assayed target: Acetylcholinesterase (Homo sapiens, UniProt P22303)
- Sequence (P22303 whole entry): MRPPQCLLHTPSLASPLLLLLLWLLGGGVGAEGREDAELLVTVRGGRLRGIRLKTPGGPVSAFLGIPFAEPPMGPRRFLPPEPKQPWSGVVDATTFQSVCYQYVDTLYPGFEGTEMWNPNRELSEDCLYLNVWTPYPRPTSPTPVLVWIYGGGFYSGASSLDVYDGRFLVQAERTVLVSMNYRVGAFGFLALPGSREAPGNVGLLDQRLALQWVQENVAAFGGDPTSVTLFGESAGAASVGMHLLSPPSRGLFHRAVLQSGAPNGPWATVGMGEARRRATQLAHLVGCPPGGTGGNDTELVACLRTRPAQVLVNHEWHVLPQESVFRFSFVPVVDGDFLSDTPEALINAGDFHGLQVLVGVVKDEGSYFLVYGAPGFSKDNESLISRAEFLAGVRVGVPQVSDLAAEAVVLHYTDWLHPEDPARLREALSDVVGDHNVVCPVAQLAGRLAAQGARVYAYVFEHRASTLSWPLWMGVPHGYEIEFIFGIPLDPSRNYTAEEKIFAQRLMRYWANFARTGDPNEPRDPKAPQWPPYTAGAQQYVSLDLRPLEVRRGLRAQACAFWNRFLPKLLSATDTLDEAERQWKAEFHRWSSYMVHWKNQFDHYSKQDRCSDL
- test details: In vitro inhibitory activity against human AchE (Acetylcholinesterase)
reported endpoint: log10 of IC50 (log10 of the value in nM)
In our notation, the value equals log10 of IC50 in nM.

Known results for compounds:
| compound | assayed target | log10 of IC50 |
| --- | --- | --- |
| CCCCCCNC(=O)Oc1ccc2c(c1)[C@@H]1CCN(CC)C1C2 (mixture of isomers) | Acetylcholinesterase (Homo sapiens, UniProt P22303) | 2.32 |
| CCCCCCNC(=O)Oc1ccc2c(c1)[C@]1(C)CCN(C)C1C2 (mixture of isomers) | Acetylcholinesterase (Homo sapiens, UniProt P22303) | 1.89 |
| CCN1CC[C@@]2(C)c3cc(OC(=O)N[C@@H](C)c4ccccc4)ccc3CC12 (stereo not given in full) | Acetylcholinesterase (Homo sapiens, UniProt P22303) | 3.12 |

**Q:** Need log10 of IC50 of CCCCCCCNC(=O)Oc1ccc2c(c1)[C@]1(C)CCN(CC)C1C2 (mixture of isomers) , thanks.
**A:** 1.76

**Q:** Need log10 of IC50 of CCN1CC[C@H]2c3cc(OC(=O)NC)ccc3CC21 (stereo not given in full) , thanks.
**A:** 2.40

Where do the numbers come from? From ChEMBL document CHEMBL1125437.
